The measurements presented in this section are drawn from ChEMBL document CHEMBL1201862.

Test system: SF-268
Experiment: NCI tumour cell line growth inhibition, 48 h
Active and inactive are the calls of the source. Cut-off read from the data, not from the text of the source: active = GI50 up to about 1.1 µM and inactive = higher.
# valid calls are 1 for active, -1 for inactive; nothing else

Ask: Hi, sorry to bother you, what did the test record for `Cn1cc(NC(=O)c2cc(NC(=O)CCCCCCCCCCC(=O)Nc3cc(C(=O)Nc4cc(C(=O)NCCC(=N)N)n(C)c4)n(C)c3)cn2C)cc1C(=O)NCCC(=N)N` ?
Result: -1

Ask: Hi, sorry to bother you, what did the test record for CC(=O)C1=C(C)N(c2ccccc2)C2(O)C3=C(C(=O)c4ccccc4C3=O)C(O)=CC12Cl (stereo not drawn) ?
Result: -1

Ask: Hi, sorry to bother you, what did the test record for `O=S(=O)(c1ccc(NC(=S)N/N=C/c2ccccc2O)cc1)N1CCCCC1` ?
Result: 1

Ask: Hi, sorry to bother you, what did the test record for COC(=O)C(C)(C)OCc1ccc(C2NC(=O)N(c3cccc(Cl)c3)C(=O)N2c2cccc(Cl)c2)cc1 (stereo not drawn) ?
Result: -1

Ask: Hi, sorry to bother you, what did the test record for `N#Cc1nc(C#N)c(N)[nH]1` ?
Result: -1

Ask: Hi, sorry to bother you, what did the test record for `CNS(=O)(=O)NN(C)S(=O)(=O)c1ccc(F)cc1` ?
Result: -1

Ask: Hi, sorry to bother you, what did the test record for `CCOC(=O)C1=NN(c2ccc([N+](=O)[O-])cc2)[C@@]2(C)C[C@]3(c4ccccc4)N(c4ccc([N+](=O)[O-])cc4)N=C(C(=O)OCC)N3c3ccccc3N12` ?
Result: -1

Ask: Hi, sorry to bother you, what did the test record for COc1ccccc1C1SCC(=O)N1c1ccc(-c2ccc(-n3c(-c4ccccc4)nc4ccccc4c3=O)cc2)cc1 (stereo not drawn) ?
Result: -1
